pKi overview
# TEST SYSTEM: SSTR2 (Homo sapiens)
# Sequence (P30874 whole entry): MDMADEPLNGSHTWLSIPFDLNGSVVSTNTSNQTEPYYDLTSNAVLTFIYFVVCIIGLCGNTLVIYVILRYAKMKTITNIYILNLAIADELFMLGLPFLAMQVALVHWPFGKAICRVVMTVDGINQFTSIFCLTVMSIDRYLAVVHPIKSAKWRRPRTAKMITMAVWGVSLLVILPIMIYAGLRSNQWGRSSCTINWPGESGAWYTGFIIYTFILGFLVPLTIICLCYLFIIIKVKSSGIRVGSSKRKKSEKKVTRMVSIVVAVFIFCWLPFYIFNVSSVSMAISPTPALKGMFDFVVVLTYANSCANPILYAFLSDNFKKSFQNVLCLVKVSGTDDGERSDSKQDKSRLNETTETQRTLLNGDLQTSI
# PROTOCOL TEXT: SSTR binding affinity by radioligand binding competition assay ([125I]-Tyr11-Somatostatin, membrane extracts)
# MEASUREMENT PARAMETERS: radioligand competition, [125I]-Tyr11-Somatostatin 0.1 nM, membrane extracts; Ki from IC50 by Cheng Prusoff; read-out: SSTR2 Ki
pKi: −log10 of the molar value. Numbered stars: 1 amine (or outer) side, 2 acyl side, 3 side chain; on linkers, the order of the positions; unused ones are H or OH. Square brackets hold non-standard residues; d marks the D form. Peptide text beside a SMILES is read from it. * marks the point of attachment. DOTA(Lu)NH(CH2)6NHCOCH2 = O=C(CN1CCN2CCN3CCN(CC1)CC(=O)[O][Lu]([O]C(=O)C2)[O]C(=O)C3)NCCCCCCNC(=O)C*; DOTA(Lu) = O=C1CN2CCN3CCN(CC(=O)*)CCN(CC2)CC(=O)[O][Lu]([O]1)[O]C(=O)C3; dTrp(βS-Me) = C[C@@H](c1c[nH]c2ccccc12)[C@@H](N)C(=O)O; X22 = O=C([C@H](Cc1ccc(O)nc1)N[*:1])[*:2]; X2 = O=C([C@H](CCC1CNC1)N[*:1])[*:2]; NMehCys = CN[C@@H](CCS)C(=O)O; NMeK = CN[C@@H](CCCCN)C(=O)O; Ethyl(2-NH2) = NCC*
PARAMETER: pKi

COMPOUND	VALUE OBSERVED
C[C@@H](O)[C@@H]1NC(=O)[C@H](CCC2CNC2)NC(=O)[C@@H]([C@@H](C)c2c[nH]c3ccccc23)NC(=O)[C@H](Cc2ccc(O)cc2)NC(=O)[C@H](CCCCNC(=O)CN2CCN3CCN4CCN(CC2)CC(=O)[O][Lu]([O]C(=O)C3)[O]C(=O)C4)N(C)C(=O)[C@H](Cc2ccccc2)NC1=O [RB-0006128] (cyclo(F[NMeK](DOTA(Lu))Y[dTrp(βS-Me)][X2]T))	> 9.00
C[C@@H](O)[C@@H]1NC(=O)[C@H](CCCCN)NC(=O)[C@H](Cc2c[nH]c3ccccc23)NC(=O)[C@H](Cc2ccc(O)cc2)NC(=O)[C@H](CCSCC(=O)NCCOCCOCCOCCNC(=O)CN2CCN3CCN4CCN(CC2)CC(=O)[O][Lu]([O]C(=O)C3)[O]C(=O)C4)N(C)C(=O)[C@H](Cc2ccccc2)NC1=O	> 9.00
C[C@@H](O)[C@@H]1NC(=O)[C@H](CCCCN)NC(=O)[C@@H](Cc2c[nH]c3ccccc23)NC(=O)[C@H](Cc2ccc(O)cc2)NC(=O)[C@H](CCSCC(=O)NCCCCCCNC(=O)CN2CCN3CCN4CCN(CC2)CC(=O)[O][Lu]([O]C(=O)C3)[O]C(=O)C4)N(C)C(=O)[C@H](Cc2ccc(O)nc2)NC1=O [RB-0003279] (cyclo(KT[X22][NMehCys](DOTA(Lu)NH(CH2)6NHCOCH2)Y[dW]))	8.00 to 8.48
CC(C)[C@@H]1NC(=O)[C@H](CCCCN)NC(=O)[C@@H](Cc2c[nH]c3ccccc23)NC(=O)[C@H](Cc2ccc(O)cc2)NC(=O)[C@H](CCSCC(=O)NCCCCCCNC(=O)CN2CCN3CCN4CCN(CC2)CC(=O)[O][Lu]([O]C(=O)C3)[O]C(=O)C4)N(C)C(=O)[C@H](C)NC1=O [RB-0005266] (cyclo(A[NMehCys](DOTA(Lu)NH(CH2)6NHCOCH2)Y[dW]KV))	> 9.00
CO[C@H](C)[C@@H]1NC(=O)[C@H](CCCCN)NC(=O)[C@@H](Cc2c[nH]c3ccccc23)NC(=O)[C@H](Cc2ccc(O)cc2)NC(=O)[C@H](CCSCC(=O)NCCCCCCNC(=O)CN2CCN3CCN4CCN(CC2)CC(=O)[O][Lu]([O]C(=O)C3)[O]C(=O)C4)N(C)C(=O)[C@H](Cc2ccccc2)NC1=O	> 9.00
C[C@@H](O)[C@@H]1NC(=O)[C@H](COCCN)NC(=O)[C@@H](Cc2c[nH]c3ccccc23)NC(=O)[C@H](Cc2ccc(O)cc2)NC(=O)[C@H](CCSCC(=O)NCCCCCCNC(=O)CN2CCN3CCN4CCN(CC2)CC(=O)[O][Lu]([O]C(=O)C3)[O]C(=O)C4)N(C)C(=O)[C@H](Cc2ccccc2)NC1=O [RB-0005899] (cyclo(F[NMehCys](DOTA(Lu)NH(CH2)6NHCOCH2)Y[dW]S(Ethyl(2-NH2))T))	> 9.00

// data source = patent US20250222146A1
